Tested on: Contig2088_s_at, Bowman-Birk type trypsin inhibitor
Test: GEP, barley DNA chip, probe set 2.1
Assay type: in vivo
Set-up: dose or concentration left out as unconfirmed
Conditions: Hordeum vulgare, topical; barley leaves 6 h after spray application; rates of Table 1 (S7 500); median induction factor vs control; read-out: Expression value, 2.1 Contig2088_s_at
Measured property: fold induction
I'd appreciate a reply containing only the number, no unit.

# count of solved cases: 4
NC(=O)c1ccc(C(F)(F)F)nc1O [S6]: 1
CSC(=O)c1cccc2nnsc12 [S8, Acibenzolar-S-methyl]: 7.36
CCOC(=O)C(Oc1ccc(Cl)c2cccnc12)C(=O)OCC [S5]: 1
O=C(O)C1=NN(c2ccc(Cl)cc2Cl)C(c2ccc(F)cc2)C1 (centres unmarked) [S2]: 1

Moving on to the next compound.
Ask | Give a short answer stating reported fold induction for O=C(O)c1cc(Cl)cc(Cl)c1O [S10] .
Reply | 2.41
